# molecule, melting point
rows = [
    ("COc1ccc(NC(=O)c2ccccc2)cc1Nc1ccccc1 [Example 49]", "209 to 210 °C"),
    ("COc1ccc(C(=O)Nc2ccc(C)c(C)c2)cc1NC(=S)Nc1cccc(C)c1 [Example 102]", "155 to 160 °C"),
    ("COc1ccc(C(=O)Nc2ccccc2)cc1NS(=O)(=O)c1ccc(Cl)c(Cl)c1 [Example 136]", "191 to 193 °C"),
    ("COc1ccc(NC(=S)Nc2cc(C(=O)Nc3ccccc3)ccc2OC)cc1 [Example 83]", "168 to 169 °C"),
    ("COc1ccc(C(=O)Nc2ccccc2)cc1NC(=O)CC(=O)OCc1ccccc1 [Example 252]", "168 to 171 °C"),
    ("COc1ccc(C(=O)Nc2ccccc2)cc1NC(=S)Nc1ccc(S(N)(=O)=O)cc1 [Example 90]", "193 to 195 °C"),
    ("COc1ccc(C(=O)Nc2ccccc2)cc1NC(=S)Nc1ccc(Cl)cc1 [Example 65]", "179 to 180 °C"),
    ("COc1ccc(C(=O)Nc2ccccc2)cc1NC(=NC#N)Nc1cc(Cl)cc(Cl)c1 [Example 256]", "225 to 227 °C"),
    ("COc1ccc(C(=O)Nc2ccccc2)cc1NC(=S)Nc1ccc(C(C)(C)C)cc1 [Example 64]", "198 to 200 °C"),
    ("COc1ccc(C(=O)Nc2ccccc2)cc1NS(=O)(=O)c1cccc([N+](=O)[O-])c1 [Example 122]", "208 to 210 °C"),
    ("O=C(Nc1ccc(F)c(NC(=S)Nc2cccc(C(F)(F)F)c2)c1)c1ccc(Cl)c(Cl)c1 [Example 114]", "172 to 174 °C"),
    ("COc1ccc(C(=O)Nc2ccccc2)cc1NC(=S)Nc1ccc(C(F)(F)F)cc1 [Example 63]", "194 to 196 °C"),
    ("COc1ccc(C(=O)Nc2ccc(F)cc2)cc1Nc1ccccc1 [Example 39]", "151 to 152 °C"),
    ("COc1ccc(C(=O)Nc2ccccc2)cc1OC(=O)Oc1ccccc1 [Example 144]", "152 to 153 °C"),
    ("COc1ccc(C(=O)Nc2ccccc2)cc1NC(=S)Nc1cccc(Cl)c1 [Example 61]", "165 to 168 °C"),
    ("COc1ccc(C(=O)Nc2ccccc2)cc1NS(=O)(=O)c1cc(Cl)sc1Cl [Example 132]", "189 to 190 °C"),
    ("Cc1ccc(NC(=O)c2ccc(O)c(Nc3cc(Cl)cc(Cl)c3)c2)cc1 [Example 58]", "179 to 183 °C"),
    ("COc1ccc(C(=O)Nc2ccc(C)c(Cl)c2)cc1N [Example 12]", "153 to 157 °C"),
]
